These measurements were taken from paper PMC11012289.

- experimental target: IRAP (Homo sapiens, UniProt Q9UIQ6)
- Construct: The screen was performed with the soluble truncated IRAP enzyme; made in house
- Sequence (Q9UIQ6 155-1025 limits assumed): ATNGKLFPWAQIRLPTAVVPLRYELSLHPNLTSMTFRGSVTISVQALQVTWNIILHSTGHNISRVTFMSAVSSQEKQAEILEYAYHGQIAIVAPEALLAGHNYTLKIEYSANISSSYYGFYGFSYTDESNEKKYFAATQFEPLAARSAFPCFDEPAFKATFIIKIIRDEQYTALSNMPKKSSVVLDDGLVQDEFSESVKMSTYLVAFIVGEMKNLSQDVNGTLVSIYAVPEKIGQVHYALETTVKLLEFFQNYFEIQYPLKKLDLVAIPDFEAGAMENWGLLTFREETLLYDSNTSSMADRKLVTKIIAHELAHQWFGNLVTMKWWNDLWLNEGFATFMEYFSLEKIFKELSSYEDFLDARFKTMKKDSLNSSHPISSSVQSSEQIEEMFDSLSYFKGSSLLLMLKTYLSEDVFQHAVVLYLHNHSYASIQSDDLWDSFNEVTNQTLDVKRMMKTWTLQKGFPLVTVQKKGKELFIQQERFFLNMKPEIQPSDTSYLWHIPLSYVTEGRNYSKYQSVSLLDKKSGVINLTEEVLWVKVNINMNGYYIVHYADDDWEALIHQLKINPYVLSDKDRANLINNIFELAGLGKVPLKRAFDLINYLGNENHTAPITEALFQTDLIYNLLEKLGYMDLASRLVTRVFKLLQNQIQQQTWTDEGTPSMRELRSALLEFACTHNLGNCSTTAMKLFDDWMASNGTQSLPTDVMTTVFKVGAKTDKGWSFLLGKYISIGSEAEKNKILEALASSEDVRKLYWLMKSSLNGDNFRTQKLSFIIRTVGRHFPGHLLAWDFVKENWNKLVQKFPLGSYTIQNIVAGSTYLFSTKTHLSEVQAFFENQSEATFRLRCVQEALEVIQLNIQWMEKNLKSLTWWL
- experimental details: Primary fluorescence IRAP assay (L-Leucine-7-amido-4-methylcoumarin cleavage)
- Type: biochemical
- condition details: 37.5 µM L-Leucine-7-amido-4-methylcoumarin, 60 min RT, dose-response 20 µM-27.4 nM; read-out: Fluorescence IC50
pIC50: −log10 of the molar value.
quantity kind: pIC50

Please review the entries below; each comes with its answer.
O=C(COCc1ccccc1)N1CCc2n[nH]c(-c3cccs3)c2CC1 | 5.65
COc1cc(CN2C(Cc3ccc(S(C)(=O)=O)cc3)CCC2c2cccnc2)cc(OC)c1 (stereo not drawn) | 5.40
COc1ccc(S(=O)(=O)CCC(CCCc2ccccc2)C(=O)NO)cc1 (stereo not drawn) | 6.15
O=C(NO)C1(CS(=O)(=O)N2CCC(c3ccc(F)cc3Cl)C2)CCC1 (stereo not drawn) | 5.92
COc1cc2c(cc1-c1cnco1)C(=O)N(C)C(C)(C=Cc1ccncc1)N2 (stereo not drawn) | 5.43
COc1cc(C(=O)N2CCc3n[nH]c(-c4cccs4)c3CC2)on1 | 5.82
Cc1ccc(-c2nc(C3CCCN3C(=O)NCc3ccccc3)n3ccccc23)cc1 (racemic) | 5.40

P = c1ccn(CCCSc2nnc3ccc(N4CCCC4)nn23)c1
Q = CCOC(=O)c1c(Cl)cc(C)nc1N1CCCC(Cc2ccc(C(=O)N(C)C)cc2)C1 (stereo not drawn)
// which entry has the larger pIC50 value, P or Q ? Pick one and reply with its label.
Q

----------
- experimental target: IRAP (Homo sapiens, UniProt Q9UIQ6)
- Construct: The screen was performed with the soluble truncated IRAP enzyme; made in house
- experimental details: Primary fluorescence IRAP assay (L-Leucine-7-amido-4-methylcoumarin cleavage)
- Format: biochemical
- condition details: 4 µl end volume, 30 min; read-out: EC50 (best-fit)
quantity kind: EC50 (µM)
Give the quantity in µM, number only.

Identify measured EC50 associated with O=S(=O)(Nc1cccc(-c2nnn[nH]2)c1)c1cc(Cl)c(Cl)cc1Cl [I, reference compound]
27.2

----------
- experimental target: IRAP (Homo sapiens, UniProt Q9UIQ6)
- Construct: The screen was performed with the soluble truncated IRAP enzyme; made in house
- experimental details: Thermal shift (TSA) IRAP assay
- Format: binding
- condition details: screening hits at 30 µM, 1% DMSO
quantity kind: ΔTm at 30 µM (°C)

See these solved cases before continuing.
Fc1ccc(F)c(Cn2ccc3ncccc32)c1Cl [QHL31] | 0
NCC[C@H]1CCCCN1C(=O)Cn1nc(-c2ccc(Cl)nc2)c2c1CCCC2 [QHL38] | 2.22
O=C(C1CCCCC1)N1CCC[C@@H]1c1cc(-c2cccnc2)on1 [QHL27] | 1.48

A = COc1cc(C(=O)N2CCc3n[nH]c(-c4cccs4)c3CC2)on1 [QHL9]
B = O=C(Cc1cc(N2CCCCCC2)nc(-c2ccc(Cl)cc2)n1)NO [QHL29]
C = CC(C)C(CS(=O)(=O)N1CCC(c2ccc(F)cc2Cl)C1)C(=O)NO (centres unmarked) [QHL6]
D = CC(C)C(CS(=O)(=O)N(Cc1cc2ccccc2o1)C(C)C)C(=O)NO (centres unmarked) [QHL3]
E = Fc1ccc(F)c(Cn2ccc3ncc(N4CCNCC4)cc32)c1Cl [QHL7]
Endpoint returns the given compounds ordered by ascending ΔTm at 30 µM. # list labels per requested ordering
A, E, B, C, D
